Tested on: 429239-143-T-J1-PDC complex spheroid viability
Assay: Anticancer human tumor 429239-143-T-J1-PDC patient-derived small cell lung carcinoma cell line growth inhibition [POLQ]
Settings: curve of first compound; second compound 0.316 µM
READOUT_TYPE: IC50 (nM)

Cn1ncnc1[C@H]1c2n[nH]c(=O)c3cc(F)cc(c23)N[C@@H]1c1ccc(F)cc1 + COC1C(OC(N)=O)C(O)C(Oc2ccc3c(O)c(NC(=O)c4ccc(O)c(CC=C(C)C)c4)c(=O)oc3c2C)OC1(C)C
23.4
COc1cccc2c1C(=O)c1c(O)c3c(c(O)c1C2=O)CC(O)(C(=O)CO)CC3OC1CC(N)C(O)C(C)O1 (stereo unspecified) + Cc1cccc(N(C)C(=O)C2C(O)CCN2c2nc(C)cc(C(F)(F)F)c2C#N)c1
47.8
CNCc1ccc(-c2[nH]c3cc(F)cc4c3c2CCNC4=O)cc1 + Cc1cccc(N(C)C(=O)C2C(O)CCN2c2nc(C)cc(C(F)(F)F)c2C#N)c1
2210
CCc1cc2c(N3CCc4c(cc(Cn5ccnc5)cc4-c4cn(C)nc4C(F)(F)F)C3=O)cc(C)nc2c(OC)n1 + COC1C(OC(N)=O)C(O)C(Oc2ccc3c(O)c(NC(=O)c4ccc(O)c(CC=C(C)C)c4)c(=O)oc3c2C)OC1(C)C
1390
CNCc1ccc(-c2[nH]c3cc(F)cc4c3c2CCNC4=O)cc1 + COC1C(OC(N)=O)C(O)C(Oc2ccc3c(O)c(NC(=O)c4ccc(O)c(CC=C(C)C)c4)c(=O)oc3c2C)OC1(C)C
2570
CC1COCCN1c1cc(C2(O)CC3CCC(C2)O3)c2cnn(-c3ccn[nH]3)c2n1 (stereo unspecified) + COC1C(OC(N)=O)C(O)C(Oc2ccc3c(O)c(NC(=O)c4ccc(O)c(CC=C(C)C)c4)c(=O)oc3c2C)OC1(C)C
49

----------
Test system: 429239-143-T-J1-PDC complex spheroid viability
Test: Anticancer human tumor 429239-143-T-J1-PDC cell line growth inhibition [POLQ]; active = viability on the fitted dose curve at most 10% of control; inactive = the rest;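 also: luminescence signal used as surrogate measure of viable cells; spheroids exposed to compounds for seven days before readout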
Conditions: second compound 1 µM; first compound 1 µM
Classes used: active, inactive

O=C(Nc1ccc(O)c(NS(=O)(=O)c2ccc(F)cc2)c1)c1ccc(-c2ccccc2)cc1 + COC1C(OC(N)=O)C(O)C(Oc2ccc3c(O)c(NC(=O)c4ccc(O)c(CC=C(C)C)c4)c(=O)oc3c2C)OC1(C)C
inactive
COc1cccc2c1C(=O)c1c(O)c3c(c(O)c1C2=O)CC(O)(C(=O)CO)CC3OC1CC(N)C(O)C(C)O1 (configuration not stated) + Cc1cccc(N(C)C(=O)C2C(O)CCN2c2nc(C)cc(C(F)(F)F)c2C#N)c1
active
CC1COCCN1c1cc(C2(S(C)(=N)=O)CC2)nc(-c2ccnc3[nH]ccc23)n1 (configuration not stated) + COC1C(OC(N)=O)C(O)C(Oc2ccc3c(O)c(NC(=O)c4ccc(O)c(CC=C(C)C)c4)c(=O)oc3c2C)OC1(C)C
inactive
CCCS(=O)(=O)Nc1ccc(F)c(C(=O)c2c[nH]c3ncc(-c4ccc(Cl)cc4)cc23)c1F + Nc1ccc(C#CCN(C(=O)Cc2ncc(C(F)(F)F)cc2C(F)(F)F)c2ccc(F)cc2)nn1
inactive
O=C(Nc1ccc(O)c(NS(=O)(=O)c2ccc(F)cc2)c1)c1ccc(-c2ccccc2)cc1 + Nc1ccc(C#CCN(C(=O)Cc2ncc(C(F)(F)F)cc2C(F)(F)F)c2ccc(F)cc2)nn1
inactive
C=CCn1c(=O)c2cnc(Nc3ccc(N4CCN(C)CC4)cc3)nc2n1-c1cccc(C(C)(C)O)n1 + Nc1ccc(C#CCN(C(=O)Cc2ncc(C(F)(F)F)cc2C(F)(F)F)c2ccc(F)cc2)nn1
inactive
O=c1[nH]cc(F)c(=O)[nH]1 + COC1C(OC(N)=O)C(O)C(Oc2ccc3c(O)c(NC(=O)c4ccc(O)c(CC=C(C)C)c4)c(=O)oc3c2C)OC1(C)C
inactive

----------
System: 429239-143-T-J1-PDC complex spheroid viability
Test: Anticancer human tumor 429239-143-T-J1-PDC cell line growth inhibition [POLQ];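 also: luminescence signal used as surrogate measure of viable cells; spheroids exposed to compounds for seven days before readout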
Conditions: curve of first compound; second compound 0.316 µM
pIC50: −log10 of the molar value.
pIC50 reference
READOUT_TYPE: pIC50

COc1cc2cc(C(=O)CCC(=O)O)sc2cc1OC + Nc1ccc(C#CCN(C(=O)Cc2ncc(C(F)(F)F)cc2C(F)(F)F)c2ccc(F)cc2)nn1
< 5.00
Nc1ccn(C2OC(CO)C(O)C2(F)F)c(=O)n1 (stereo not given) + COC1C(OC(N)=O)C(O)C(Oc2ccc3c(O)c(NC(=O)c4ccc(O)c(CC=C(C)C)c4)c(=O)oc3c2C)OC1(C)C
> 7.50
CCc1c2c(nc3ccc(O)cc13)-c1cc3c(c(=O)n1C2)COC(=O)[C@]3(O)CC + COC1C(OC(N)=O)C(O)C(Oc2ccc3c(O)c(NC(=O)c4ccc(O)c(CC=C(C)C)c4)c(=O)oc3c2C)OC1(C)C
> 8.50
CC(C)n1c(=O)n(C)c2cnc3cc(F)c(-c4ccc(OCCCN5CCCCC5)nc4)cc3c21 + COC1C(OC(N)=O)C(O)C(Oc2ccc3c(O)c(NC(=O)c4ccc(O)c(CC=C(C)C)c4)c(=O)oc3c2C)OC1(C)C
< 5.00
CC(C)n1c(=O)n(C)c2cnc3cc(F)c(-c4ccc(OCCCN5CCCCC5)nc4)cc3c21 + Cc1cccc(N(C)C(=O)C2C(O)CCN2c2nc(C)cc(C(F)(F)F)c2C#N)c1
< 5.00
